The entries below are paired with their reported melting point.

| COMPOUND | melting point |
| --- | --- |
| C[C@]12CCC(=O)C=C1CC[C@@H]1[C@@H]2[C@@H](O)C[C@@]2(C)[C@H]1CC[C@]2(O)C(=O)CO [(11beta)-11,17,21-Trihydroxypregn-4-ene-3,20-dione] | 220 °C |
| O=C1C=C(O)C(=O)c2ccccc21 [2-Hydroxy-1,4-naphthoquinone] | 192 °C |
| O=[N+]([O-])c1cccc(CO)c1 [3-nitrobenzyl alcohol] | 31 °C |
| CCC(=O)c1ccc(OCc2ccccc2)cc1 [4'-benzyloxypropiophenone] | 100 °C |
| O=C(O)c1nn(Cc2ccc(Cl)cc2Cl)c2ccccc12 [lonidamine] | 207 °C |
| Clc1nc2ccccc2s1 [2-chlorobenzothiazole] | 32 °C |
| CC(C)(C)c1cc(C=O)cc(C(C)(C)C)c1O [3,5-di-tert-butyl-4-hydroxybenzaldehyde] | 188 °C |
| O=C(O)Cc1ccc(Oc2ccccc2)cc1 [4-phenoxyphenylacetic acid] | 76 °C |
| COc1ccc([C@@H]2CC(=O)c3c(O)cc(O)cc3O2)cc1O [hesperetin] | 228 °C |
| O=[N+]([O-])c1ccc(Cl)cc1 [1-chloro-4-nitrobenzene] | 84 °C |
| COC(=O)c1ccccc1C(=O)OC [dimethyl phthalate] | 5 °C |
| OCc1ccc(Cl)cc1 [4-chlorobenzyl alcohol] | 71 °C |
| CSc1[nH]nc(N)c1C#N [3-amino-5-methylthio-1h-pyrazole-4-carbonitrile] | 149 °C |
| CCCCC(=O)N(Cc1ccc(-c2ccccc2-c2nnn[nH]2)cc1)C(C(=O)O)C(C)C (centres undefined) | 116 °C |
| COc1ccc(OC)c(C(C)=O)c1 [2',5'-dimethoxyacetophenone] | 19 °C |
| Cc1cc(Br)c(C)cc1Br [2,5-Dibromo-p-xylene] | 74 °C |
| COc1ccc(O)cc1 [4-Methoxyphenol] | 56 °C |
| CCCCCCCc1ccc(-c2ccc(C#N)cc2)cc1 [4-cyano-4'-n-heptylbiphenyl] | 31 °C |
| Nc1cc2ccccc2cc1N [2,3-diaminonaphthalene] | 195 °C |
| Cc1ccc(-n2c(C)cc(C=O)c2C)cc1 [OSM-S-29] | 110 °C |
| FC(F)(F)c1ccccc1Cl [2-chlorobenzotrifluoride] | -6 °C |
| c1cncnc1 [pyrimidine] | 21 °C |
| Cn1nnc2ccccc21 [1-methyl-1h-benzotriazole] | 65 °C |
| CCCCCCCCOc1ccc(NC(=O)c2ccc(C)cc2)cc1 [4-methyl-N-[4-(octyloxy)phenyl]benzamide] | 141 °C |
| CC(=O)NC1=C(C)CCCC1 [N-(2-methylcyclohex-1-en-1-yl)acetamide] | 90 °C |
| Nc1cc(C(F)(F)F)ccc1[N+](=O)[O-] [2-nitro-5-(trifluoromethyl)aniline] | 100 °C |
| Cc1cc(C)nc(NS(=O)(=O)c2ccc(N)cc2)n1 [Sulfamethazine] | 198 °C |
| Cn1c2ccccc2c2ccccc21 [9-Methyl-9H-carbazole] | 91 °C |
| CCOC(=O)c1cnn(-c2ccccc2)c1 [ethyl 1-phenyl-1h-pyrazole-4-carboxylate] | 98 °C |
| CCCCCl [1-chlorobutane] | -123 °C |
| CCCC(=O)OCSc1ncnc2c1ncn2COC(=O)CCC [S6,9-Bis(butanoyloxymethyl)-6-mercaptopurine] | 69 °C |
| CC(=O)Oc1cccc(C(C)=O)c1 [3-acetoxy_acetophenone] | 44 °C |
| CC(C)(C)OC(=O)N[C@@H](Cc1cccs1)C(=O)O [N-boc-3-(2-thienyl)-L-alanine] | 74 °C |
| CC(C)CN [isobutylamine] | -85 °C |
| OB(O)c1ccc2[nH]ccc2c1 [indole-5-boronic acid] | 173 °C |
| c1ccc(COc2cccc(-c3nnn[nH]3)c2)cc1 [5-(3-benzyloxyphenyl)-1h-tetrazole] | 209 °C |
| [C-]#[N+]c1cnn(-c2ncnc3c2cnn3C)c1/C=C/OCC | 155 °C |
| O=C(O)c1cc([N+](=O)[O-])cc([N+](=O)[O-])c1 [3,5-dinitrobenzoic acid] | 206 °C |
| O=[N+]([O-])c1ccc(O)cc1 [4-nitrophenol] | 112 °C |

###

| MOLECULE | melting point [°C] |
| --- | --- |
| CCCC(=O)CC | -55 |
| [2H]C([2H])([2H])C([2H])([2H])C([2H])([2H])C([2H])([2H])C([2H])([2H])C([2H])([2H])C([2H])([2H])C([2H])([2H])C([2H])([2H])[2H] | -53 |
| Nc1ccc([N+](=O)[O-])cc1N | 201 |
| CCCCCCCCCc1ccc(B(O)O)cc1 | 84 |
| Cc1ccccc1CP(=O)(O)O | 186 |
| CN(C)NC(=O)CCC(=O)O [4-(2,2-Dimethylhydrazino)-4-oxobutanoic acid] | 154 |
| CC(C)O [2-propanol] | -88 |
| O=C(O)c1cccc(Br)c1 [m-bromobenzoic acid] | 157 |
| CCOC(=O)c1ccccc1 [Ethyl benzoate] | -34 |

###

Property: melting point; scope: individual compounds

| COMPOUND | VALUE_UNIT | melting point |
| --- | --- | --- |
| Fc1ccc(/C=N/n2c(S)nnc2C(F)(F)F)cc1 | °C | 212 |
| CCCCC(=O)O [valeric acid] | °C | -34 |
| Nc1ccc(Cl)cc1Cl | °C | 61 |
| COCC(=O)N(c1c(C)cccc1C)C(C)C(=O)OC (stereo unspecified) [Metalaxyl] | °C | 72 |
| CCOC(=O)C(=O)Nc1ccccc1 [ethyl oxanilate] | °C | 67 |
| CCN(CC)C(=S)SSC(=S)N(CC)CC [tetraethylthiuram disulfide] | °C | 71 |
| O=c1cc(-c2ccccc2)oc2c1ccc1ccccc12 | °C | 158 |
| O=C1CCCC1 [cyclopentanone] | °C | -51 |
| O=C(O)Cc1ccc(O)cc1 [4-hydroxyphenylacetic acid] | °C | 152 |
| CCCCc1ccc(NC(=O)c2ccc(OC)cc2)cc1 [benzamide, N-(4-butylphenyl)-4-methoxy-] | °C | 147 |
| CF | °C | -142 |

###

| MOLECULE | melting point |
| --- | --- |
| CCOC(=O)C#CC(=O)OCC [diethyl acetylenedicarboxylate] | 2 °C |
| CC=C(C)Br [2-bromo-trans-2-butene] | -115 °C |
| N#CCc1cccc(Br)c1 [m-bromophenylacetonitrile] | 28 °C |
| CCC [propane] | -188 °C |
| COc1ccc(B(O)O)cc1OC [3,4-dimethoxybenzeneboronic acid] | 240 °C |
| COc1cc2c(c(OC)c1OC)-c1ccc(OC)c(=O)cc1[C@@H](NC(C)=O)CC2 | 142 °C |
| CC(=O)c1cccc(N)c1 [m-aminoacetophenone] | 97 °C |
| Clc1ccccc1C(Cl)(Cl)Cl [2-chlorobenzotrichloride] | 30 °C |
| CCOC(=O)c1ccc(-n2c(C)ccc2C)cc1 [OSM-S-40] | 60.5 °C |
| C=COCC [Ethoxyethene] | -115 °C |
| Nc1cccc(Cc2cccc(N)c2)c1 [3,3'-diaminodiphenylmethane] | 82 °C |
| Nc1ccc(Nc2ccccc2)cc1 [N-phenyl-p-phenylenediamine] | 74 °C |
| C[C@H]1CC[C@@H](C)CC1 [cis-1,4-dimethylcyclohexane] | -87 °C |
| CC(C)Nc1ccccc1 [N-isopropylaniline] | -32 °C |
| O=C1CCC(c2ccc(Br)cc2)=NN1 [6-(4-bromophenyl)-4,5-dihydro-3(2h)-pyridazinone] | 169 °C |
| CCc1ccc(C)nc1 [5-ethyl-2-methylpyridine] | -71 °C |
| CC(=O)OC1CCC2C3CCC4CC=CCC4(C)C3CCC12C (configuration not stated) [androst-2-en-17-yl acetate] | 94 °C |
| COC(=O)[C@H](CCC(=O)O)NC(=O)OCc1ccccc1 [N-benzyloxycarbonyl-l-glutamic acid 1-methyl ester] | 67 °C |
| C#C[C@]1(O)CC[C@H]2[C@@H]3CCC4=CC(=O)CC[C@@H]4[C@H]3CC[C@@]21CC [Levonorgestrel] | 236 °C |
| CCCc1c(O)cccc1O [2-n-propylresorcinol] | 103 °C |
| Cc1ccc(O)c(/N=N/c2c(O)cc(S(=O)(=O)O)c3ccccc23)c1 | 300 °C |
| CCn1c2ccccc2c2ccccc21 [9-Ethyl-9H-carbazole] | 69 °C |
| Cc1cccc(C(=O)O)c1 [m-toluic_acid] | 110 °C |
| O=C(O)c1cc(O)ccc1[N+](=O)[O-] [5-hydroxy-2-nitrobenzoic acid] | 170 °C |
| O=[N+]([O-])c1ccc(Cl)cc1 [1-Chloro-4-nitrobenzene] | 83.6 °C |
| Oc1cccc2ccc3cccnc3c12 [10-hydroxybenzo[h]quinoline] | 104 °C |
| CC(CCc1oc2ccc([N+](=O)[O-])cc2c1-c1ccc(C)o1)=NO | 161 °C |
| O=[N+]([O-])c1c(Cl)c(Cl)c(Cl)c(Cl)c1Cl [pentachloronitrobenzene] | 144 °C |
| CC(=O)ON(/C=C1\C(=O)C2(C)CCC1C2(C)C)c1ccccc1 (configuration not stated) | 163 °C |
| Nc1ccc(I)cn1 [2-amino-5-iodopyridine] | 128 °C |
| CCCCCC(N)=O [hexanamide] | 101 °C |
| Cc1nnc2n1-c1ccc(Cl)cc1C(c1ccccc1Cl)=NC2 [Triazolam] | 234 °C |
| O=C(O)CCCCCCCC(=O)O [Azelaic Acid] | 106 °C |
| CCOC(=O)C1=C(C(=O)OCC)C(C)N=N1 (configuration not stated) [diethyl 5-methyl-1H-pyrazole-3,4-dicarboxylate] | 99 °C |
| CCCCOC(=O)[C@@H](C)Oc1ccc(Oc2ccc(C(F)(F)F)cn2)cc1 | 5 °C |
| CC(=O)c1ccc(C#N)cc1 [4-acetylbenzonitrile] | 58 °C |
| NNC(=O)c1ccncc1 [Isonicotinohydrazide] | 171 °C |
| CN1CCC[C@H]1c1cccnc1 [(S)-nicotine] | -79 °C |
| Clc1ccc(NC(/N)=NC(N)=NC(C)C)cc1 [Proguanil] | 129 °C |
| ClC(Cl)C(Cl)(Cl)Cl [pentachloroethane] | -29 °C |
| COc1ccc(OC)c(C(O)CNC(=O)CN)c1 (configuration not stated) [Midodrine] | 202 °C |
| OC1CCCCCCC1 [cyclooctanol] | 15 °C |
